Below: a set of entries, each annotated with reported activation at 0.1 µM.
- target or system: GABAA receptors (α5β2γ2) (Homo sapiens, UniProt P18507+P31644)
- Construct: expressed in transfected cells; host or cells: oocytes injected with a mix of alpha, beta and gamma cDNA (1:1:10 by weight)
- Sequence (P31644 32-462): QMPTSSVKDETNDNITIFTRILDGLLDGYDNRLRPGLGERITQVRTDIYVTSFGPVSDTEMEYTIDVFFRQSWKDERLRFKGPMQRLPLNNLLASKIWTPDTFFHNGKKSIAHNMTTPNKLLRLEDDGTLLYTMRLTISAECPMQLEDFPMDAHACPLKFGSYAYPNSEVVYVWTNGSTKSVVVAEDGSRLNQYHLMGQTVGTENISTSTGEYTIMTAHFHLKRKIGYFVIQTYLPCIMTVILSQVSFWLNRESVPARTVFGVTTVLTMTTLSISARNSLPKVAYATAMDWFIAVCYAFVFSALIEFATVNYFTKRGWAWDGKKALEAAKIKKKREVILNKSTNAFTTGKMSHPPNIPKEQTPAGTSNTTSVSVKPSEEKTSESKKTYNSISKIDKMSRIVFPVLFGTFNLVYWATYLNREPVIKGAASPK
- Sequence (P47870 25-512 partner limits assumed): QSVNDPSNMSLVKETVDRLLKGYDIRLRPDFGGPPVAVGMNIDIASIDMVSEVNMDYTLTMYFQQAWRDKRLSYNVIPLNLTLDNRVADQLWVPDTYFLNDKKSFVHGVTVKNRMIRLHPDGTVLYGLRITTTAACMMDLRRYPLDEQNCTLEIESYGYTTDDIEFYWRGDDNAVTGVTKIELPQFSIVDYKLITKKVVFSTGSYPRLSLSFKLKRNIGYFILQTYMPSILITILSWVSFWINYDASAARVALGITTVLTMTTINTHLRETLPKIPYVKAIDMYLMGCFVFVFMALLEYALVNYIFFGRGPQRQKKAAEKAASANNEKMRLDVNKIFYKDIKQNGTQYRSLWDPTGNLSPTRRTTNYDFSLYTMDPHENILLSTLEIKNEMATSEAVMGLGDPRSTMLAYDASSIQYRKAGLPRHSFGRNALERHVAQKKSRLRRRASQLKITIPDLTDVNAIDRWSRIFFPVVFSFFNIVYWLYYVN
- Sequence (P18507 40-475): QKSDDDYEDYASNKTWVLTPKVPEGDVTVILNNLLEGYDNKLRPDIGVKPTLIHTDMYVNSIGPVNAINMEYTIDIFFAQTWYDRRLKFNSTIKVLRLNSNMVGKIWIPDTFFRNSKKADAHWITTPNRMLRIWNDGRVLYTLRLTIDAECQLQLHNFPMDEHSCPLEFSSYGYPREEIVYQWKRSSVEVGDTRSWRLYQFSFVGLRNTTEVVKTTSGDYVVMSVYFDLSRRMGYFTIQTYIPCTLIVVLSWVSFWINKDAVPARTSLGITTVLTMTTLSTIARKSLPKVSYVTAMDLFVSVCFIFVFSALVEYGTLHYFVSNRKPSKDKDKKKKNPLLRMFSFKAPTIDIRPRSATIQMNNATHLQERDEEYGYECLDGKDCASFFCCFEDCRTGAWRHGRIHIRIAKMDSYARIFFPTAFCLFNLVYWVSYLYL
- protocol: Positive allosteric modulator activity, potentiation of EC20 GABA current in oocytes
- Assay type: cell-based
- run parameters: read-out: GABA α5 functional potentiation
readout type: activation at 0.1 µM

structure_as_smiles=COc1ccc2c(c1)-c1nnc(COc3ccccc3)n1Cc1c(-c3noc(C(C)C)n3)ncn1-2 reported_result="> 50%"
structure_as_smiles=CCOC(=O)c1ncn2c1Cc1c(Cc3cccnc3)nnn1-c1cc(C)ccc1-2 reported_result="20 to 49%"
structure_as_smiles=COc1ccc2c(c1)-c1nnc(COc3cccc(F)c3)n1Cc1c(-c3noc(C(C)C)n3)ncn1-2 reported_result="> 50%"
structure_as_smiles=COc1ccc2c(c1)-c1nnc(COc3ccccc3)n1Cc1c(C(=O)OC(C)C)ncn1-2 reported_result="20 to 49%"
structure_as_smiles=CC(C)c1nc(-c2ncn3c2Cn2c(COc4ccccc4)nnc2-c2cc(F)ccc2-3)no1 reported_result="20 to 49%"
structure_as_smiles=CCOC(=O)c1ncn2c1Cc1c(COc3ccccc3)nnn1-c1cc(OC)ccc1-2 reported_result="20 to 49%"
